Target Entity: T1, human cholecystokinin-1 receptor (human, UniProt P32238 1-428)
T1 construct: whole, on cells; also called CCK-1R; CCK-1 receptor
T1 sequence (looked up): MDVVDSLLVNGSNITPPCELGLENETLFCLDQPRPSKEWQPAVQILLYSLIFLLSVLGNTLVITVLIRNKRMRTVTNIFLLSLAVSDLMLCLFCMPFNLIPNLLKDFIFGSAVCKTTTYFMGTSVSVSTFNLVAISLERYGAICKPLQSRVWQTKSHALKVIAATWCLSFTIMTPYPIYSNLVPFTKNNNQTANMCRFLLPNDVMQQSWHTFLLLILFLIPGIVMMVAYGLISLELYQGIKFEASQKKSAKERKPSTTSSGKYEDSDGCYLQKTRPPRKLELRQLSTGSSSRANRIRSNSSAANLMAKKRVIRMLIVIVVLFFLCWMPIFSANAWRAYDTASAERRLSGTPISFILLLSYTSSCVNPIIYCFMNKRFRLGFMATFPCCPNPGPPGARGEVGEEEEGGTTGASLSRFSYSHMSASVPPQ
Assay Protocol: SPA competition vs [125I]-CCK-8s, membranes
Starred links: 1 amine or outer side, 2 acyl side, 3 side chain; linkers in the order of their positions; H or OH if unused. Non-standard residues stand in square brackets, D forms with d. No end group written: not given here. *: point of attachment. Phe(4-CH2SO3H) = N[C@@H](Cc1ccc(CS(=O)(=O)O)cc1)C(=O)O; sY = N[C@@H](Cc1ccc(OS(=O)(=O)O)cc1)C(=O)O; C18 diacid = O=C(O)CCCCCCCCCCCCCCCCC(=O)*; γGlu = O=C(O)[C@H](CCC(=O)[*:2])N[*:1]; βAsp = O=C(O)[C@H](CC(=O)[*:2])N[*:1]; NMeF = CN[C@@H](Cc1ccccc1)C(=O)O; dNMeD = CN[C@H](CC(=O)O)C(=O)O; Nle = CCCC[C@H](N)C(=O)O; AEEA = NCCOCCOCC(=O)O
I'd appreciate it if you could supply log10(IC50) values for the items below.
Friendly reminder: values = log10 of IC50, unit nM.

Here is how some binders turned out for log10(IC50).
{C18 diacid-γGlu-AEEA-AEEA}-[sY][Nle]GW[Nle][dNMeD][NMeF]-NH2 (SMILES CCCC[C@H](NC(=O)[C@H](Cc1ccc(OS(=O)(=O)O)cc1)NC(=O)COCCOCCNC(=O)COCCOCCNC(=O)CC[C@H](NC(=O)CCCCCCCCCCCCCCCCC(=O)O)C(=O)O)C(=O)NCC(=O)N[C@@H](Cc1c[nH]c2ccccc12)C(=O)N[C@@H](CCCC)C(=O)N(C)[C@H](CC(=O)O)C(=O)N(C)[C@@H](Cc1ccccc1)C(N)=O, X = Nle or Nal) :: -1.41
E[sY]LGW[Nle][dNMeD]F-NH2 (N-terminus assumed; SMILES CCCC[C@H](NC(=O)[C@H](Cc1c[nH]c2ccccc12)NC(=O)CNC(=O)[C@H](CC(C)C)NC(=O)[C@H](Cc1ccc(OS(=O)(=O)O)cc1)NC(=O)[C@@H](N)CCC(=O)O)C(=O)N(C)[C@H](CC(=O)O)C(=O)N[C@@H](Cc1ccccc1)C(N)=O, X = Nle or Nal) [Glu-sTyr-Leu-Gly-Trp-Nle-DMeAsp-Phe-amide] :: -1.54
[βAsp][Phe(4-CH2SO3H)][Nle]GW[Nle][dNMeD][NMeF]-NH2 (N-terminus assumed; SMILES CCCC[C@H](NC(=O)[C@H](Cc1ccc(CS(=O)(=O)O)cc1)NC(=O)C[C@H](N)C(=O)O)C(=O)NCC(=O)N[C@@H](Cc1c[nH]c2ccccc12)C(=O)N[C@@H](CCCC)C(=O)N(C)[C@H](CC(=O)O)C(=O)N(C)[C@@H](Cc1ccccc1)C(N)=O, X = Nle or Nal) [bAsp-Phe(4-sulfomethyl)-Nle-Gly-Trp-Nle-DMeAsp-MePhe-amide] :: -1.31
D[sY]SGW[Nle][dNMeD][NMeF]-NH2 (N-terminus assumed; SMILES CCCC[C@H](NC(=O)[C@H](Cc1c[nH]c2ccccc12)NC(=O)CNC(=O)[C@H](CO)NC(=O)[C@H](Cc1ccc(OS(=O)(=O)O)cc1)NC(=O)[C@@H](N)CC(=O)O)C(=O)N(C)[C@H](CC(=O)O)C(=O)N(C)[C@@H](Cc1ccccc1)C(N)=O, X = Nle or Nal) [Asp-sTyr-Ser-Gly-Trp-Nle-DMeAsp-MePhe-amide] :: -1.46
{C18 diacid-γGlu-AEEA-AEEA}-K[AEEA]D[Phe(4-CH2SO3H)][Nle]GW[Nle][dNMeD][NMeF]-NH2 (X = Nle or Nal) :: -1.09

Dear colleague, could you please provide log10(IC50) for the binders listed below?
1. D[sY]KGW[Nle][dNMeD][NMeF]-NH2 (N-terminus assumed; SMILES CCCC[C@H](NC(=O)[C@H](Cc1c[nH]c2ccccc12)NC(=O)CNC(=O)[C@H](CCCCN)NC(=O)[C@H](Cc1ccc(OS(=O)(=O)O)cc1)NC(=O)[C@@H](N)CC(=O)O)C(=O)N(C)[C@H](CC(=O)O)C(=O)N(C)[C@@H](Cc1ccccc1)C(N)=O, X = Nle or Nal) [Asp-sTyr-Lys-Gly-Trp-Nle-DMeAsp-MePhe-amide]
2. {C18 diacid-γGlu-AEEA-AEEA}-D[Phe(4-CH2SO3H)][Nle]GW[Nle][dNMeD][NMeF]-NH2 (X = Nle or Nal)
3. D[Phe(4-CH2SO3H)][Nle]GW[Nle][dNMeD][NMeF]-NH2 (N-terminus assumed; SMILES CCCC[C@H](NC(=O)[C@H](Cc1ccc(CS(=O)(=O)O)cc1)NC(=O)[C@@H](N)CC(=O)O)C(=O)NCC(=O)N[C@@H](Cc1c[nH]c2ccccc12)C(=O)N[C@@H](CCCC)C(=O)N(C)[C@H](CC(=O)O)C(=O)N(C)[C@@H](Cc1ccccc1)C(N)=O, X = Nle or Nal) [Asp-Phe(4-sulfomethyl)-Nle-Gly-Trp-Nle-DMeAsp-MePhe-amide]
4. {C18 diacid-γGlu-AEEA-AEEA}-E[sY]LGWQ[dNMeD][NMeF]-NH2
5. E[sY]LGWQ[dNMeD][NMeF]-NH2 [Glu-sTyr-Leu-Gly-Trp-Gln-DMeAsp-MePhe-amide]
6. [sY][Nle]GW[Nle][dNMeD][NMeF]-NH2 (N-terminus assumed; SMILES CCCC[C@H](NC(=O)[C@@H](N)Cc1ccc(OS(=O)(=O)O)cc1)C(=O)NCC(=O)N[C@@H](Cc1c[nH]c2ccccc12)C(=O)N[C@@H](CCCC)C(=O)N(C)[C@H](CC(=O)O)C(=O)N(C)[C@@H](Cc1ccccc1)C(N)=O, X = Nle or Nal) [sTyr-Nle-Gly-Trp-Nle-DMeAsp-MePhe-amide]
7. EGPWLEEEEEAYGWMDF (N-terminal pyroglutamic acid (pE, Pyr); C-terminal amide; Tyr non-sulfated)
8. {C18 diacid-γGlu-AEEA-AEEA}-D[sY]KGW[Nle][dNMeD][NMeF]-NH2 (X = Nle or Nal)

## Result
1: -1.52; 2: -0.59; 3: -1.34; 4: -1.01; 5: -1.07; 6: -1.22; 7: 2.53; 8: -1.00

## Task Item {C18 diacid-γGlu-AEEA-AEEA}-[dD][Phe(4-CH2SO3H)][Nle]GW[Nle][dNMeD][NMeF]-NH2 (X = Nle or Nal) has what recorded log10(IC50)?
## Result -1.14

All figures here come from patent US20170008928A1.
